Test system: MGC-803
protocolSummary: Antiproliferative activity against human MGC-803 cells assessed as inhibition of cell proliferation incubated for 48 hrs by MTT assay
Type: functional, cell-based
experimentalContext: MGC-803, 48 h
pIC50: −log10 of the molar value.
Below: a set of entries, each annotated with reported pIC50.

These solved cases illustrate the format of a correct answer.
smilesinput=COc1ccc(-c2cnoc2-c2ccnc3ccccc23)cc1 experimentalvalue=7.62
smilesinput=c1ccc2c(-c3[nH]nnc3-c3ccc4oc5ccccc5c4c3)ccnc2c1 experimentalvalue="< 5.00"

Then there is this molecule:
Q. Tell me the measured pIC50 of Cc1ccccc1-c1nn[nH]c1-c1ccnc2ccccc12 , please.
A. < 5.00

---

Test system: MGC-803
protocolSummary: Antiproliferative activity against human MGC-803 cells assessed as inhibition of cell proliferation incubated for 48 hrs by MTT assay
Type: functional, cell-based
experimentalContext: MGC-803, 48 h
pIC50: −log10 of the molar value.
recordedMetric: pIC50

Sample records with pIC50:
smilesinput=COc1ccccc1-c1cnoc1-c1ccnc2ccccc12 recordedmetric=pIC50 experimentalvalue="< 5.00"
smilesinput=Cc1cc(-c2oncc2-c2ccc3c(c2)CCO3)c2ccccc2n1 recordedmetric=pIC50 experimentalvalue=6.39
smilesinput=c1ccc2c(-c3[nH]nnc3-c3ccc4sccc4c3)ccnc2c1 recordedmetric=pIC50 experimentalvalue="< 5.00"

We now examine a further compound.
Q. For the compound shown here, c1ccc2c(-c3[nH]nnc3-c3ccc4sc5ccccc5c4c3)ccnc2c1 , give the reported pIC50.
A. < 5.00
